Source listed as paper PMC8466754.

measurement_description: Ester stability assay in buffer (RP-HPLC)
Type: physicochemical
condition_label: Tris buffer pH 8.4, 16 h, room temperature, 1 mM compound
Listed molecules paired with reported percentage of compound peak area present after 16 h of incubation, Tris
Give the quantity in %, number only.

Sample records with percentage of compound peak area present after 16 h of incubation, Tris:
>>> test_result("CCOC(=O)[C@H](CCN(C/C=C/c1ccc(C#N)cc1)C[C@H]1O[C@@H](n2cnc3c(N)ncnc32)[C@H](O)[C@@H]1O)NC(=O)CC(C)(C)c1c(C)cc(C)cc1OC(C)=O [Compound 14c]")
87.00
>>> test_result("CC(C)OC(=O)[C@@H](N)CCN(C/C=C/c1ccc(C#N)cc1)C[C@H]1O[C@@H](n2cnc3c(N)ncnc32)[C@H](O)[C@@H]1O [Compound 12e]")
93.70
>>> test_result("CCCOC(=O)[C@H](CCN(C/C=C/c1ccc(C#N)cc1)C[C@H]1O[C@@H](n2cnc3c(N)ncnc32)[C@H](O)[C@@H]1O)NC(=O)CC(C)(C)c1c(C)cc(C)cc1OC(C)=O [Compound 14d]")
87.52
>>> test_result("COC(=O)[C@@H](N)CCN(C/C=C/c1ccc(C#N)cc1)C[C@H]1O[C@@H](n2cnc3c(N)ncnc32)[C@H](O)[C@@H]1O [Compound 12b]")
22.59

// COC(=O)[C@H](CCN(C/C=C/c1ccc(C#N)cc1)C[C@H]1O[C@@H](n2cnc3c(N)ncnc32)[C@H](O)[C@@H]1O)NC(=O)CC(C)(C)c1c(C)cc(C)cc1OC(C)=O [Compound 14b] : percentage of compound peak area present after 16 h of incubation, Tris value = 73.88

// N#Cc1ccc(/C=C/CN(CC[C@H](N)C(=O)OCc2ccccc2)C[C@H]2O[C@@H](n3cnc4c(N)ncnc43)[C@H](O)[C@@H]2O)cc1 [Compound 12f] : percentage of compound peak area present after 16 h of incubation, Tris value = 21.60

// CCOC(=O)[C@@H](N)CCN(C/C=C/c1ccc(C#N)cc1)C[C@H]1O[C@@H](n2cnc3c(N)ncnc32)[C@H](O)[C@@H]1O [Compound 12c] : percentage of compound peak area present after 16 h of incubation, Tris value = 54.84
